Measurement protocol: Blood clearance in male Wistar Han rat measured up to 7 hrs by LC-MS/MS analysis
Format: ADME
Measurement kind: clearance (mL/min/kg)
Give bare numbers, in mL/min/kg.

CC(=O)Nc1c(F)cc(C(=O)N[C@H]2CC[C@H](O)CC2)cc1O[C@@H](C)c1ccccc1 [GSK046]: 82
CNC(=O)c1cc(C(=O)NC2CC2)cn(Cc2ccccc2)c1=O [GSK620]: 75
CNC(=O)c1cc(C(=O)NC2CC2)cn(Cc2cccc3[nH]ccc23)c1=O: 128

For the next question, use this molecule.
Documented clearance of CNC(=O)c1cc(C(=O)N[C@H]2[C@@H]3COC[C@@H]32)cc2c1O[C@H](CF)[C@H]2c1ccccc1 [GSK973] : 180

Values were extracted from ChEMBL document CHEMBL4834464.
